From: the supplement of paper PMC6555819

Exercise: for every item that follows, state its recorded PBM binding z-score.
- System: THRa:RXRa (NR concentration 90 nM, RXRa partner concentration 90 nM)
- method.notes: PBM binding z-score (relative to random genomic background probes); higher = stronger binding; sequences stand for … in GC…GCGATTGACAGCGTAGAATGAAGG

The following sequences have reported results that may help.
{"columns": ["seq.string", "PBM binding z-score"],
 "data": [
  ["CCTCGGAGGACAGAAAGTCAGAGCTGTCCGCTTT", -0.441],
  ["TCTAGTTGGTAACGGAGGTCACACACGACGGGTA", 3.54],
  ["CAAACTAGGTCACCGGAAGGTCAAAGTCCGCATG", 4.6],
  ["CTACCAAAGTGAACAAGGTCGTTGATTACTATTC", 1.94],
  ["CGTCCAAGCTCAAGGTCAGTGAAAGAGACTCGAA", 2.87]
]}

Below are 2 sequences. Give each one its PBM binding z-score.
1. TCAGACAGGTGAAGGTAACTCAAGTACGCAGTCG
2. TCGAGTAGGTTACCAATTGGGCATTCAGCTTTCT

1. 1.68
2. -0.0916

---

- Tested on: PPARg:RXRa (NR concentration 180 nM, RXRa partner concentration 90 nM)
- method.notes: PBM binding z-score (relative to random genomic background probes); higher = stronger binding; sequences stand for … in GC…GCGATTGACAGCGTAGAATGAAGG
Respond with TRUE for PBM binding z-score values of 0.9 and above, FALSE for values below.

{"columns": ["seq.string", "tested.target", "label.value"],
 "data": [
  ["TCTATTTGGTCACGGAGGTCACACACGACGGGTA", "PPARg:RXRa (NR concentration 180 nM, RXRa partner concentration 90 nM)", "TRUE"],
  ["TCAGACTGGTGAAGGTAACTCAGGTACGCAGTCG", "PPARg:RXRa (NR concentration 180 nM, RXRa partner concentration 90 nM)", "FALSE"],
  ["CCGACTGGGGCCTAAGGTTACCATAAGCCAGCCC", "PPARg:RXRa (NR concentration 180 nM, RXRa partner concentration 90 nM)", "TRUE"]
]}

Check this sequence for PBM binding z-score at or above 0.9: `ATATGTATGTTAAGGGTCATTCAGGTTGGTTCGC`
TRUE

Check this sequence for PBM binding z-score at or above 0.9: `GGAACGAGGGCAAAGCTGATAGCATCTGTCGACG`
TRUE

Check this sequence for PBM binding z-score at or above 0.9: `ACTAGCAGGCCGAGTTTGGGTCACTCAAACAAAG`
FALSE

---

- System: PPARg:RXRa 30nM:10nM, anti-RXR (NR concentration 30 nM, RXRa partner concentration 10 nM)
- method.notes: PBM binding z-score (relative to random genomic background probes); higher = stronger binding; sequences stand for … in GC…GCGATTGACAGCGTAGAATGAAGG
parameter: PBM binding z-score
Give bare numbers.

The following sequences have reported results that may help.
{"columns": ["seq.string", "PBM binding z-score"],
 "data": [
  ["TCTTGTAGATCAGCCGGTTAAGAAAGCTGGCCAA", 2.52],
  ["CAAACTAGGTCAAGGGTCAAAGTCGAGCCAACCA", 11.4],
  ["CCTAGTTGGTCTGGAGGTCACACACCGGATATGA", 0.849]
]}

Below are 4 sequences. Give each one its PBM binding z-score.
1. CGTCAAAGTTCAACTAAGGTAACCTAAAGCACGC
2. GCTGCTACGTCAACTGATGGTCAGCTAAAGCTCG
3. AGAATGAGGTTACCATAGATCAGGGAAACGCTTG
4. TAGCCTAGGTCATTGGGCGAGTATAGTACGCATC

2.33
-0.808
0.706
0.405

---

Exercise: for every item that follows, state its recorded PBM binding z-score.
- Test system: PXR:RXRa (NR concentration 270 nM, RXRa partner concentration 90 nM)
- method.notes: PBM binding z-score (relative to random genomic background probes); higher = stronger binding; sequences stand for … in GC…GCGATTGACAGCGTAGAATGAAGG
Answers are plain numbers.

The following sequences have reported results that may help.
{"columns": ["seq.string", "parameter", "observed"],
 "data": [
  ["ATCGAAAGGTCGACGAGGTGAGGATACACCGTTT", "PBM binding z-score", 2.77],
  ["ACTATTAGTTGACTTAGGGCAACTGATACGACGC", "PBM binding z-score", 0.176],
  ["GATACAGGCTCAGCTAGAGGCCAGAGTATGGAAA", "PBM binding z-score", -0.951],
  ["CAAACTAGCTCAAGAGGTCAAAGTCCGCTTCCCG", "PBM binding z-score", 5.37],
  ["CAAACTAGGTCAAGGTCAAAGTTGGTTTGTGCCA", "PBM binding z-score", 5.28]
]}

Okay, now this sequence:
Note to self: PBM binding z-score recorded for `GATACAGGGTCAAGGCGAGAGTACGCGTATTGAT` was 3.76

---

- Tested on: THRa:RXRa (NR concentration 90 nM, RXRa partner concentration 90 nM)
- method.notes: PBM binding z-score (relative to random genomic background probes); higher = stronger binding; sequences stand for … in GC…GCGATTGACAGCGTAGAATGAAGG
Respond with Satisfied for PBM binding z-score values of 2 and above, Not satisfied for values below.

Previously resolved entries follow.
{"columns": ["seq.string", "label.value"],
 "data": [
  ["CGAACGAGGGCCTGAGTTGATAGCAAATGCCGAT", "Not satisfied"],
  ["CCGACTGGGGCAAAGGTTCCCATACTCAGTACGA", "Not satisfied"],
  ["TCATATAGGTAAAGGTGGAAGTCGAACGATATGA", "Not satisfied"],
  ["CCCAGTTGGTCAGGAGGTCACACACCGGATATGA", "Satisfied"],
  ["CGTCCAAGGTCAGAGGTCAGTGAAGAGATGACGG", "Satisfied"],
  ["ACTAATAGTTGACTTAGGGCAACCGATACGACGC", "Not satisfied"],
  ["CAAACTAGGTCACGAAAGGTCAAACTCGAATGAC", "Satisfied"],
  ["ATCTCTAGGTAAAGATAGTTCAGTGATTGCAAAT", "Not satisfied"]
]}

Check this sequence for PBM binding z-score at or above 2: `GCTTACGGGTCGAAGGTTATAGCATGAATAGAAT`
Not satisfied

---

- System: LXRa homodimer (NR concentration 270 nM)
- method.notes: PBM binding z-score (relative to random genomic background probes); higher = stronger binding; sequences stand for … in GC…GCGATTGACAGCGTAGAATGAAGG
parameter: PBM binding z-score
Answers are plain numbers.

The following sequences have reported results that may help.
{"columns": ["seq.string", "tested.target", "PBM binding z-score"],
 "data": [
  ["ACAGACAGGTGGTGAAGGTAACTCAGGCTATCAT", "LXRa homodimer (NR concentration 270 nM)", -0.324],
  ["CCTCGGAGGACAGAAGGTCAGGGCTGTCCGCTTT", "LXRa homodimer (NR concentration 270 nM)", 0.0831],
  ["CTACCAAGGTGAACAAGGTCGTTAATTACTATTC", "LXRa homodimer (NR concentration 270 nM)", 0.268],
  ["ATCTCTAGGTAAGCCTCAGTTCAGTGAAGAACGC", "LXRa homodimer (NR concentration 270 nM)", 0.468]
]}

Below are 7 sequences. Give each one its PBM binding z-score.
1. GCTAGTTGGTCAGTAAAAGGTCATACACCGGTCG
2. CCTAGTTGGTCAAGGACACACACGCTATAGGTAC
3. TCATATAGGTAAATGCTAGGTGTAAGTCCGATCT
4. TCTTGTAGATCAGGCAGGTTAAGAAAGCCTGAGT
5. TAGCCTAGGTCATTCAGGGGCCAGTAAAGAAAGC
6. TCATCTAGGTAAAGGTGAAAGTCGAACGATATGA
7. CCAGATAGGTGAAAGGTAACTCAGTCTGGTACGC

[5.64, 0.309, 0.2, -0.308, 0.681, 0.00636, 0.0245]

---

- Test system: VDR:RXRa (NR concentration 270 nM, RXRa partner concentration 90 nM)
- method.notes: PBM binding z-score (relative to random genomic background probes); higher = stronger binding; sequences stand for … in GC…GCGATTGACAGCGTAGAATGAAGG
parameter: PBM binding z-score
Answers are plain numbers.

The following sequences have reported results that may help.
{"columns": ["seq.string", "tested.target", "observed"],
 "data": [
  ["CCGACTGGGGCAGAAACGTTACCATACCATCCGG", "VDR:RXRa (NR concentration 270 nM, RXRa partner concentration 90 nM)", -0.901],
  ["CCGAGTGGGGCAAGGTTACCATAACGCACAGCCA", "VDR:RXRa (NR concentration 270 nM, RXRa partner concentration 90 nM)", 0.482],
  ["TCGAGTAGTTTAGGGGCATTCAGAATGGCGTCGA", "VDR:RXRa (NR concentration 270 nM, RXRa partner concentration 90 nM)", 0.605],
  ["AGTCAAAGTTCACTAGGTAACGTAGGATTCAGCT", "VDR:RXRa (NR concentration 270 nM, RXRa partner concentration 90 nM)", 3.71]
]}

Below are 2 sequences. Give each one its PBM binding z-score.
1. TCATATAGGTAATACATGTGAAAGTCGGCATCTA
2. TATACAGTGTCAAAGGCCAGAGTACGAATGTCGA

1. 1.07
2. 0.815
